Numbers sourced from BigSolDB 2.1.

details: in ethanol, 323.15 K
readout-name: solubility (mole fraction)

smiles-input: CC(=O)C1=CC[C@H]2[C@@H]3CCC4=CC(=O)C=C[C@]4(C)[C@H]3[C@@H](O)C[C@]12C
measured-result: 0.00461

====

conditions: in acetone, 298.15 K

smiles-input: CC(=O)C1=CC[C@H]2[C@@H]3CCC4=CC(=O)C=C[C@]4(C)[C@H]3[C@@H](O)C[C@]12C
solubility (mole fraction): 0.00192

====

settings: in acetone, 323.15 K
readout-name: solubility (mole fraction)

smiles-input: CC(=O)C1=CC[C@H]2[C@@H]3CCC4=CC(=O)C=C[C@]4(C)[C@H]3[C@@H](O)C[C@]12C
readout-name: solubility (mole fraction)
measured-result: 0.00351

====

settings: in acetone, 303.15 K
readout-name: solubility (mole fraction)

smiles-input: CC(=O)C1=CC[C@H]2[C@@H]3CCC4=CC(=O)C=C[C@]4(C)[C@H]3[C@@H](O)C[C@]12C
measured-result: 0.00215

====

conditions: in ethanol, 308.15 K

smiles-input: CC(=O)C1=CC[C@H]2[C@@H]3CCC4=CC(=O)C=C[C@]4(C)[C@H]3[C@@H](O)C[C@]12C
solubility (mole fraction): 0.00291

====

settings: in ethanol, 298.15 K

smiles-input: CC(=O)C1=CC[C@H]2[C@@H]3CCC4=CC(=O)C=C[C@]4(C)[C@H]3[C@@H](O)C[C@]12C
solubility (mole fraction): 0.00213

====

details: in acetone, 313.15 K
readout-name: solubility (mole fraction)

smiles-input: CC(=O)C1=CC[C@H]2[C@@H]3CCC4=CC(=O)C=C[C@]4(C)[C@H]3[C@@H](O)C[C@]12C
readout-name: solubility (mole fraction)
measured-result: 0.00275

====

settings: in ethanol, 303.15 K

smiles-input: CC(=O)C1=CC[C@H]2[C@@H]3CCC4=CC(=O)C=C[C@]4(C)[C@H]3[C@@H](O)C[C@]12C
solubility (mole fraction): 0.00252

====

settings: in ethanol, 333.15 K

smiles-input: CC(=O)C1=CC[C@H]2[C@@H]3CCC4=CC(=O)C=C[C@]4(C)[C@H]3[C@@H](O)C[C@]12C
solubility (mole fraction): 0.00625

====

conditions: in ethanol, 348.15 K
readout-name: solubility (mole fraction)

smiles-input: CC(=O)C1=CC[C@H]2[C@@H]3CCC4=CC(=O)C=C[C@]4(C)[C@H]3[C@@H](O)C[C@]12C
readout-name: solubility (mole fraction)
measured-result: 0.0097

====

details: in ethanol, 343.15 K

smiles-input: CC(=O)C1=CC[C@H]2[C@@H]3CCC4=CC(=O)C=C[C@]4(C)[C@H]3[C@@H](O)C[C@]12C
solubility (mole fraction): 0.00844

====

settings: in ethanol, 318.15 K
readout-name: solubility (mole fraction)

smiles-input: CC(=O)C1=CC[C@H]2[C@@H]3CCC4=CC(=O)C=C[C@]4(C)[C@H]3[C@@H](O)C[C@]12C
readout-name: solubility (mole fraction)
measured-result: 0.00395

====

settings: in ethanol, 338.15 K
readout-name: solubility (mole fraction)

smiles-input: CC(=O)C1=CC[C@H]2[C@@H]3CCC4=CC(=O)C=C[C@]4(C)[C@H]3[C@@H](O)C[C@]12C
measured-result: 0.00722

====

conditions: in ethanol, 313.15 K
readout-name: solubility (mole fraction)

smiles-input: CC(=O)C1=CC[C@H]2[C@@H]3CCC4=CC(=O)C=C[C@]4(C)[C@H]3[C@@H](O)C[C@]12C
measured-result: 0.00335

====

conditions: in acetone, 308.15 K

smiles-input: CC(=O)C1=CC[C@H]2[C@@H]3CCC4=CC(=O)C=C[C@]4(C)[C@H]3[C@@H](O)C[C@]12C
solubility (mole fraction): 0.00243
